# TARGET OR TEST SYSTEM: T1, GST-β3cyto (GST fusion protein of the β3 integrin cytoplasmic domain) (UniProt P05106 742-788)
# T1 construct: domain: cytoplasmic domain; Recombinant GST fusion coated on microtiter wells; also called β3-GST; β3 cytoplasmic domain fusion protein; not shown: glutathione S-transferase (GST) fusion partner
# T1 sequence (P05106 742-788): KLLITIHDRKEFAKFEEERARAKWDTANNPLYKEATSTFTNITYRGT
# METHOD: phage binding, colonies from β3-GST wells / BSA wells
Ends that are not written are not given here.
Reported β3/BSA Ratio values for a set of binders

# BINDER, MEASURED RESULT
records = [
    ("SDWYYPWSW (whole phage tested; Selected on β3) [phage displaying SDWYYPWSW (SEQ ID NO:100)]", "157 ratio"),
]

query: GET /values?readout=β3/BSA Ratio&item= YEWWYWSWA (whole phage tested) [phage displaying YEWWYWSWA (SEQ ID NO:98)]
result: 28.1 ratio

query: Note, next up: CFQNRC (cysteine pairing not given here; also: displayed on phage, whole phage tested) [phage displaying CFQNRC (SEQ ID NO:102)]
result: 16 ratio
